Attribution: the supplement of paper PMC13380429

Please go through the items and note down their phospholipidosis EC50.
- System: A549-ACE2
- procedure-summary: phospholipidosis EC50; higher = less potent phospholipidosis inducer
- condition-set: 48 h
One number for each entry, in nM.

Recorded phospholipidosis EC50, per entry:
| compound | phospholipidosis EC50 / nM |
| --- | --- |
| OC(c1cc(C(F)(F)F)nc2c(C(F)(F)F)cccc12)C1CCCCN1 (centres undefined) [mefloquine] | 2780 |
| O=C(OC(C(F)(F)F)C(F)(F)F)N1CCN(Cc2cccc(Oc3ccccc3)c2)CC1 [JW-642] | 1170 |
| O=C(CN1C2=NCCN2c2ccccc21)c1ccc(-c2ccccc2)cc1 | 7270 |

Now take the following compound into account.
The recorded phospholipidosis EC50 for CN(C)CCOc1ccc(/C(=C(/CCCl)c2ccccc2)c2ccccc2)cc1 [toremifene] is 1480

* * *

Please go through the items and note down their relative viability EC50.
- Test system: Vero E6
- procedure-summary: relative viability EC50 (midpoint between 100% and the lowest measured viability); higher = less toxic
- condition-set: 72 h

Recorded relative viability EC50, per entry:
| test-smiles | relative viability EC50 |
| --- | --- |
| NC(N)=Nc1nc(CSCCN/C=N/S(=O)(=O)c2ccc(Br)cc2)cs1 | > 10 µM |
| C[N+](C)(C)[C@@H](Cc1c[nH]c(=S)[nH]1)C(=O)O | > 10 µM |
| NC[C@H]1O[C@H](O[C@H]2[C@H](O)[C@@H](O[C@H]3O[C@H](CO)[C@@H](O)[C@H](N)[C@H]3O)[C@H](N)C[C@@H]2N)[C@H](N)C[C@@H]1O | > 10 µM |
| C#CCN(C)Cc1ccccc1 | > 10 µM |

Now take the following compound into account.
The recorded relative viability EC50 for COCCOc1ccc2c(c1)ncn2-c1ccc2cccc(N3CCC(N)CC3)c2n1 is 2.35 µM

* * *

- Test system: Vero E6
- procedure-summary: cell viability relative to DMSO; higher = less toxic
- condition-set: 72 h; 10000 nM
endpoint: cell viability (%)
Answers are plain numbers, in %.

Recorded cell viability, per entry:
| compound | measured-on | assay-result |
| --- | --- | --- |
| C[S+]([O-])CCCCN=C=S (centres undefined) | Vero E6 | 90.2 |
| CO[C@H]1O[C@@H]2O[C@@]3(C)CC[C@H]4[C@H](C)CC[C@@H]([C@H]1C)[C@@]24OO3 | Vero E6 | 96.9 |
| CNC(=O)[C@@H](c1ccccc1)N1CCc2cc(OC)c(OC)cc2[C@@H]1CCc1ccc(C(F)(F)F)cc1 | Vero E6 | 109 |
| NCC(O)c1ccc(O)cc1 (centres undefined) | Vero E6 | 100 |
| COc1cccc(OCCCN)c1-c1cc(Nc2cnc(C#N)cn2)n[nH]1 | Vero E6 | 65.3 |

Parameters: items (list). Returns: cell viability for each item.
1. CC(C)[C@@H](C)/C=C/[C@@H](C)[C@H]1CC[C@H]2/C(=C/C=C3\C[C@@H](O)CC[C@@H]3C)CCC[C@]12C [dihydrotachysterol]
2. NC(N)=Nc1nc(CSCCN/C=N/S(=O)(=O)c2ccc(Br)cc2)cs1
3. CC(=O)Oc1c(C)cc(OCC(O)CNC(C)C)c(C)c1C (centres undefined)
4. NCc1c[nH]c(=S)n1[C@H]1CCc2c(F)cc(F)cc2C1 [nepicastat]

110
105
97.5
108
